- Assayed target: biotin-VEGF-A (8-109) (human)
- Sequence (P15692 whole entry): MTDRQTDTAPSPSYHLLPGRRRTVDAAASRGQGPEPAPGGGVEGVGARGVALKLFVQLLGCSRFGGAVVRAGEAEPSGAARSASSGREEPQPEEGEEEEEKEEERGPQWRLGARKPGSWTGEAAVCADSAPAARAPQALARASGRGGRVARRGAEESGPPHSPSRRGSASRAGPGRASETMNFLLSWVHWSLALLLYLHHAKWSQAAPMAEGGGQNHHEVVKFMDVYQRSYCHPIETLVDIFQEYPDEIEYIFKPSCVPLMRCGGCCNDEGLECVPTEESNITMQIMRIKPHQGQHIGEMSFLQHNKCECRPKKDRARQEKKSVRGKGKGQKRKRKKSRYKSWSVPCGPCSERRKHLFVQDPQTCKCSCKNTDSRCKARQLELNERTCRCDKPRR
- Test summary: SPR; […]; Biacore S200, […] (PBS with 0.05% Tween 20, pH 7.4); […]
pKd: −log10 of the molar value.
Examples of binders with documented pKd follow.

Solved entries:
GCTTPWVPHHIMCKQDSDCLAGCVCGPNGFCG (designed binder) [V-EET-1]    < 4.70
VGECSQPWFINMCNMVDCCSQFGYCGKGPKYCG (designed binder) [V-AMP-1]    < 5.44

Let me know recorded pKd for GCAGKSCKKWSSVHCDAGCFCQIGQQVVYIPGCV (designed binder) [V-MCH-1] , thanks.
< 4.30

Let me know recorded pKd for GCQTPWFPHQILCKQDSDCLAGCVCGPNGFCG (designed binder) [V-EET-2] , thanks.
< 4.52

Let me know recorded pKd for GCMTPWFPFTINCKQDSDCLAGCVCGPNGFCG (designed binder) [V-EET-3] , thanks.
< 5.82
